The following are reported MIC results, target or system Escherichia coli.
Answer with a number only, understood to be in µM.

// worked examples, MIC included
CC[C@H](C)[C@H](NC(=O)[C@H](Cc1cnc[nH]1)NC(=O)[C@H](C)NC(=O)[C@@H](NC(=O)[C@H](CC(N)=O)NC(=O)[C@H](Cc1cnc[nH]1)NC(=O)[C@H](CC(C)C)NC(=O)[C@H](C)NC(=O)CNC(=O)[C@H](Cc1ccc(O)cc1)NC(=O)[C@@H](N)Cc1ccc(O)cc1)[C@@H](C)O)C(=O)N[C@H](C(=O)N[C@@H](CC(C)C)C(=O)NCC(=O)N[C@@H](CCCN=C(N)N)C(=O)O)C(C)C 74.2
CC(C)C[C@H](NC(=O)[C@H](C)NC(=O)[C@@H](N)CCCCN)C(=O)N[C@@H](C)C(=O)N[C@@H](C)C(=O)N[C@@H](CC(C)C)C(=O)N[C@@H](CC(C)C)C(=O)N[C@@H](CCCCN)C(=O)N[C@@H](CCCCN)C(=O)N[C@@H](Cc1c[nH]c2ccccc12)C(=O)N[C@@H](C)C(=O)N[C@@H](CCCCN)C(=O)N[C@@H](CC(C)C)C(=O)N[C@@H](CC(C)C)C(=O)N[C@@H](C)C(=O)N[C@@H](C)C(=O)N[C@@H](CC(C)C)C(=O)N[C@@H](CCCCN)C(N)=O 4.1

--- query ---
Summary line: "CC(C)C[C@H](NC(=O)[C@H](CCCCN)NC(=O)[C@@H]1CSSC[C@H](N)C(=O)N[C@@H](CCCCN)C(=O)N[C@@H](CCCCN)C(=O)N[C@@H](CC(C)C)C(=O)N[C@@H](CC(C)C)C(=O)N[C@@H](CCCCN)C(=O)N[C@@H](CC(C)C)C(=O)N[C@@H](CC(C)C)C(=O)N[C@@H](CCCCN)C(=O)N[C@@H](CCCCN)C(=O)N[C@@H](CC(C)C)C(=O)N1)C(=O)N[C@@H](C)C(=O)NCC(=O)O" , Escherichia coli, reported MIC = 20

Cited source: DBAASP
